Values compiled from ChEMBL document CHEMBL2029212.

target: Metabotropic glutamate receptor 2 (Homo sapiens, UniProt Q14416); test: Positive allosteric modulation of human mGlu2 receptor expressed in CHO cells assessed as glutamate-induced [35S]GTPgammaS binding after 30 mins by liquid scintillation counting relative to glutamate; assay type: functional, cell-based
Sequence (Q14416 19-872 limits assumed): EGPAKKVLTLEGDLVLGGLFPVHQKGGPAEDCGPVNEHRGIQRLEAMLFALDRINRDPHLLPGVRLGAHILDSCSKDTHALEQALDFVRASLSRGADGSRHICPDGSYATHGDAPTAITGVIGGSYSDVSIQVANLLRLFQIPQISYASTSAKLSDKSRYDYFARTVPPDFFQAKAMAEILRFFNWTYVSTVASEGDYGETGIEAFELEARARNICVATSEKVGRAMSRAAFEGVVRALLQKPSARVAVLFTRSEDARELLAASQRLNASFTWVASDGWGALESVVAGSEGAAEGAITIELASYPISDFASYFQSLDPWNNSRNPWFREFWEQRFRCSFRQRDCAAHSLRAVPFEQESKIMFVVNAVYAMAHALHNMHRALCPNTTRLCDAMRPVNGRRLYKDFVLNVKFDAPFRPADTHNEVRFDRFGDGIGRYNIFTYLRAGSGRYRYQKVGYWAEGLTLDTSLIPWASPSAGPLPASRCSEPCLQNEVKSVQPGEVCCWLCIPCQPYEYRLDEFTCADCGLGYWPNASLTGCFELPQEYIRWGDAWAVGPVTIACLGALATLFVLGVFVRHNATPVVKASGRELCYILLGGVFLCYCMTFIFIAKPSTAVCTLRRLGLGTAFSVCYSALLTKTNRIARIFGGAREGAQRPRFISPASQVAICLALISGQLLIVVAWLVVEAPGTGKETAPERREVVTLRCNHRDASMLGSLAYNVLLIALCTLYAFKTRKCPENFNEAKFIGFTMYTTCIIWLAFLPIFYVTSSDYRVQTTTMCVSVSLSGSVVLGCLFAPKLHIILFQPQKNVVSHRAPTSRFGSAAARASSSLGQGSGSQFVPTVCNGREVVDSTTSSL
Listing of recorded Emax by entry.
readoutType: Emax (%)

[[record]]
smilesrepresentation = "Cc1cc(Oc2ccc(-c3ccn(CC4CC4)c(=O)c3C#N)cc2)ccn1"
unitabbrev = "%"
valuemeasured = 199

[[record]]
smilesrepresentation = "CC(C)CCn1ccc(-c2ccc(OC3CCOCC3)c(Cl)c2)c(C#N)c1=O"
unitabbrev = "%"
valuemeasured = 197

[[record]]
smilesrepresentation = "Cc1ccc(Oc2ccc(-c3ccn(CC4CC4)c(=O)c3C#N)cc2Cl)c(C)n1"
unitabbrev = "%"
valuemeasured = 196

[[record]]
smilesrepresentation = "COc1ccc(-c2ccn(CCC(C)C)c(=O)c2C#N)cc1Cl"
unitabbrev = "%"
valuemeasured = 200


---

molecular target: Metabotropic glutamate receptor 2 (Homo sapiens, UniProt Q14416); experiment: Positive allosteric modulation of human mGlu2 receptor expressed in CHO cells assessed as glutamate-induced [35S]GTPgammaS binding after 30 mins by liquid scintillation counting
Sequence (Q14416 whole entry): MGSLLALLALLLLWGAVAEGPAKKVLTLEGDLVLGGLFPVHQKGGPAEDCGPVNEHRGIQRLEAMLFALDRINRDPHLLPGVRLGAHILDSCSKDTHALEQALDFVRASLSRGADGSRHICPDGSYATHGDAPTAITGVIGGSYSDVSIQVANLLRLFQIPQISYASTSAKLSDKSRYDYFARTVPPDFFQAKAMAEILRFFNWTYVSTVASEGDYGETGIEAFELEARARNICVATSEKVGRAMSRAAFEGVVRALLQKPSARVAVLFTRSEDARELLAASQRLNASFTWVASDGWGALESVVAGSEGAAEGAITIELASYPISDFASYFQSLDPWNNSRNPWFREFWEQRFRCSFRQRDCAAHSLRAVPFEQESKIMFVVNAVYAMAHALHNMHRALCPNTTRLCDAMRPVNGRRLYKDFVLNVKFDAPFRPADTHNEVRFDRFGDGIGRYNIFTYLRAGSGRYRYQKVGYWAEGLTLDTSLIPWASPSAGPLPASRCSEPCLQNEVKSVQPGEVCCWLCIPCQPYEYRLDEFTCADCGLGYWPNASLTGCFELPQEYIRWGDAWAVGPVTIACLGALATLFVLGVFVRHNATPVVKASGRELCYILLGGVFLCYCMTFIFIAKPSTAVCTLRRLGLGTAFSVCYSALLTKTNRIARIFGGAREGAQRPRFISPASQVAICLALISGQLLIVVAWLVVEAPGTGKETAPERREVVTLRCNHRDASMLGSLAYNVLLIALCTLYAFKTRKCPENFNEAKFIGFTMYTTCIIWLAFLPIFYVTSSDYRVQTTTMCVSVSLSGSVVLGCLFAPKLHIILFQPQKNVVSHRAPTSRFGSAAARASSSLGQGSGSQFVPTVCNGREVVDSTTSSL
pEC50: −log10 of the molar value.
readoutType: pEC50

[[record]]
smilesrepresentation = "Cc1cc(Oc2ccc(-c3ccn(CC4CCC4)c(=O)c3C#N)cc2)ccn1"
valuemeasured = 6.90

[[record]]
smilesrepresentation = "COc1ccc(-c2ccn(CCC(C)C)c(=O)c2C#N)cc1"
valuemeasured = 5.94

[[record]]
smilesrepresentation = "Cc1cc(Oc2ccc(-c3ccn(CC4CC4)c(=O)c3C#N)cc2)ccn1"
valuemeasured = 6.08

[[record]]
smilesrepresentation = "CCCCn1ccc(-c2ccc(Oc3ccnc(C)c3)c(Cl)c2)c(C#N)c1=O"
valuemeasured = 6.78

[[record]]
smilesrepresentation = "CC(C)CCn1ccc(-c2ccc(OC3CCCC3)c(Cl)c2)c(C#N)c1=O"
valuemeasured = 7.00

[[record]]
smilesrepresentation = "CCCCn1ccc(-c2ccc(Oc3ccnc(C)c3)c(F)c2)c(C#N)c1=O"
valuemeasured = 6.50


---

assay: Drug metabolism in human liver microsomes at 5 uM after 15 mins; type: ADME, Microsome; settings: read-out: Drug metabolism
Output: class label from metabolised at 0.25 h, 5 µM. Mapping: low bracket = under 30%, middle bracket = from 30% up to 40%, high bracket = 40% and over

[[record]]
smilesrepresentation = "Cc1ccc(Oc2ccc(-c3ccn(CCC(C)C)c(=O)c3C#N)cc2)c(C)n1"
qualitativelabel = "high bracket"

[[record]]
smilesrepresentation = "CCCCn1ccc(-c2ccc(Oc3ccc(C)nc3C)c(Cl)c2)c(C#N)c1=O"
qualitativelabel = "middle bracket"

[[record]]
smilesrepresentation = "CCCCn1ccc(-c2ccc(Oc3cccnc3C)c(Cl)c2)c(C#N)c1=O"
qualitativelabel = "low bracket"

[[record]]
smilesrepresentation = "CC(C)CCn1ccc(-c2ccccc2)c(C#N)c1=O"
qualitativelabel = "middle bracket"

[[record]]
smilesrepresentation = "CCCCn1ccc(-c2ccc(Oc3ccnc(C)c3)cc2)c(C#N)c1=O"
qualitativelabel = "middle bracket"

[[record]]
smilesrepresentation = "CCCCn1ccc(-c2ccc(Oc3ccc(C)nc3C)cc2)c(C#N)c1=O"
qualitativelabel = "high bracket"

[[record]]
smilesrepresentation = "CCCCn1ccc(-c2ccc(Oc3ccnc(C)c3)c(F)c2)c(C#N)c1=O"
qualitativelabel = "middle bracket"

[[record]]
smilesrepresentation = "CC(C)CCn1ccc(-c2ccc(N3CCOCC3)cc2)c(C#N)c1=O"
qualitativelabel = "middle bracket"

[[record]]
smilesrepresentation = "COc1ccc(-c2ccn(CCC(C)C)c(=O)c2C#N)cc1Cl"
qualitativelabel = "high bracket"

[[record]]
smilesrepresentation = "CC(C)CCn1ccc(-c2ccc(Oc3cccnc3)cc2)c(C#N)c1=O"
qualitativelabel = "low bracket"

[[record]]
smilesrepresentation = "Cc1cc(Oc2ccc(-c3ccn(CC4CC4)c(=O)c3C#N)cc2)ccn1"
qualitativelabel = "low bracket"

[[record]]
smilesrepresentation = "Cc1cc(Oc2ccc(-c3ccn(CCC(C)C)c(=O)c3C#N)cc2)ccn1"
qualitativelabel = "high bracket"

[[record]]
smilesrepresentation = "CC(C)CCn1ccc(-c2ccc(OCC3CC3)cc2)c(C#N)c1=O"
qualitativelabel = "low bracket"

[[record]]
smilesrepresentation = "CCCCn1ccc(-c2ccc(Oc3cc(C)nc(C)c3)c(F)c2)c(C#N)c1=O"
qualitativelabel = "low bracket"

[[record]]
smilesrepresentation = "CC(C)CCn1ccc(-c2ccc(Nc3ccncc3)cc2)c(C#N)c1=O"
qualitativelabel = "low bracket"

[[record]]
smilesrepresentation = "CC(C)CCn1ccc(-c2ccc(OC3CCOCC3)c(Cl)c2)c(C#N)c1=O"
qualitativelabel = "middle bracket"

[[record]]
smilesrepresentation = "Cc1ccc(Oc2ccc(-c3ccn(CC4CC4)c(=O)c3C#N)cc2)c(C)n1"
qualitativelabel = "middle bracket"

[[record]]
smilesrepresentation = "CC(C)CCn1ccc(-c2ccc(Oc3ccccc3)cc2)c(C#N)c1=O"
qualitativelabel = "middle bracket"

[[record]]
smilesrepresentation = "CCCCn1ccc(-c2ccc(Oc3ccnc(C)c3)cc2Cl)c(C#N)c1=O"
qualitativelabel = "middle bracket"

[[record]]
smilesrepresentation = "Cc1ccc(Oc2ccc(-c3ccn(CC4CC4)c(=O)c3C#N)cc2Cl)c(C)n1"
qualitativelabel = "low bracket"

[[record]]
smilesrepresentation = "CC(C)CCn1ccc(-c2ccc(Oc3ccncc3)cc2)c(C#N)c1=O"
qualitativelabel = "low bracket"

[[record]]
smilesrepresentation = "Cc1cc(Oc2ccc(-c3ccn(CC4CCC4)c(=O)c3C#N)cc2)ccn1"
qualitativelabel = "middle bracket"

